Values were extracted from patent US7101915B1.

Tested on: IL-5 production of mouse T cell strain EL-4 (TPA)
test_protocol: Suppressive effect on the cytokine production of mouse T cell strain EL-4: IL-5
Type: cell-based
protocol_conditions: EL-4, TPA 10 ng/ml, 24 hours, ELISA
endpoint_label: IC50 IL-5 (µg/mL)

COc1cc(-c2ccc(O)cc2)c(OC)c(O)c1-c1ccc(OCc2ccc(C)cc2C)c(O)c1	0.01
COc1cc(-c2ccc(OS(C)(=O)=O)cc2)c(OC)c(C)c1-c1ccc(OCCC=C(C)C)c(OS(C)(=O)=O)c1	0.03
COc1cc(-c2ccc(C(F)(F)F)cc2)c(OC)c(OS(C)(=O)=O)c1-c1ccc(OCC=C(C)C)c(OS(C)(=O)=O)c1	10
COc1cc(-c2ccc(OS(C)(=O)=O)cc2)c(OC)c(OS(C)(=O)=O)c1-c1ccc(OCc2ccc(C(C)C)cc2)c(OS(C)(=O)=O)c1	0.34

A. COc1ccccc1-c1cc(OC)c(-c2ccc(OCc3ccc(C)cc3)c(O)c2)c(O)c1OC
B. COc1cc(-c2ccc(N(C)C)cc2)c(OC)c(OS(C)(=O)=O)c1-c1ccc(OCC=C(C)C)c(OS(C)(=O)=O)c1
C. COc1cc(-c2ccc(O)cc2)c(OC)c(O)c1-c1ccc(S(=O)(=O)CC=C(C)C)c(O)c1
List the 3 entries from lowest IC50 IL-5 to highest IC50 IL-5 value. Form field (ranking): labels in requested order.
A, C, B

1. COc1cc(-c2ccc(OCC=C(C)C)c(OS(C)(=O)=O)c2)c(OC)cc1-c1ccc(OS(C)(=O)=O)cc1
2. C#CC(O)COc1ccc(-c2c(OC)cc(-c3ccc(O)cc3)c(OC)c2O)cc1O (centres unmarked)
Between these two entries, 1 and 2 , state which has the higher IC50 IL-5. When you have decided, please share the label of that item.
1
(1: 1 µg/mL, 2: 0.12 µg/mL)

a. COc1cc(-c2cccc(C(F)(F)F)c2)c(OC)c(O)c1-c1ccc(OCCC=C(C)C)c(O)c1
b. COc1cc(-c2ccc(F)cc2)c(OC)c(O)c1-c1ccc(OCc2ccccc2)c(O)c1
// task: argmin of IC50 IL-5 over [ a , b ] // return label of chosen record
b
(b: 0.12 µg/mL, a: 0.72 µg/mL)
